ASSAY SYSTEM: HLA-A*02:01 (Homo sapiens, UniProt P04439, D140Y/D185E/D98H/E176V/E277Q/G131W/G231S/I119V/I121R/I166T/I218V/L300P/L318F/N151K/N90K/P208A/P217A/Q86G/Q94H/R138H/R169H/T345S)
METHOD NOTES: MHC binding assay (UV-ligand exchange, β2m ELISA)
CONDITION PARAMETERS: MHC class I binding score; binding to HLA-A*02:01 ranged by peptide exchange yield (UV-ligand exchange, β2m ELISA)
QUANTITY MEASURED: Peptide exchange

Take a look at these entries with their results.
183 (FLDSLIYGA; listed as Homo sapiens) [compound 183] :: ++++ (>75% = ++++)
35 (ALFAAGANV; listed as Homo sapiens) [compound 35] :: +++ (>50 = +++)
64 (SLGPIMLTKI; listed as Homo sapiens) [compound 64] :: ++ (>20% = ++)
4 (KTWDQVPFSV; listed as Homo sapiens) [compound 4] :: ++++ (>75% = ++++)
152 (IMEDFTTFL; listed as Homo sapiens) [compound 152] :: ++++ (>75% = ++++)

Problem: Assign Peptide exchange to the following record: 166 (SIIPPLFTV; listed as Homo sapiens) [compound 166]
Result: ++++ (>75% = ++++)

Problem: Assign Peptide exchange to the following record: 51 (LIDKIIEYL; listed as Homo sapiens) [compound 51]
Result: ++ (>20% = ++)

Problem: Assign Peptide exchange to the following record: 137 (ILPSNLLTV; listed as Homo sapiens) [compound 137]
Result: +++ (>50 = +++)
